# target: OR1I1 peptide/HLA-A*02:01 complex (recombinant) (human)
# test_protocol: SPR
reported_metric: binding result

[
  {
    "binder": "AS170036 VL1VH1-VHS57Q (scFv) scFv: QSALTQPRSVSGSPGQSVTISCAGTSSDVGSENYVSWYQQHPGKAPKLMIYQVNKRASGVPDRFSGSKSGNTASLTISGLQAEDEADYYCASYRSSDHNIVFGGGTKLTVLGGGGSGGGGSGGGGSEVQLVESGGGLVQPGGSLRLSCAASGFTFSSYAMSWVRQAPGKGLEWVSTINSGTGQPYYADSVKGRFTISRDNSKNTLYLQMNSLRAEDTAVYYCAKNFFDGSWFLGPPAMDYWGQGTLVTVSSHHHHHH",
    "reported_metric": "binding result",
    "result": "no binding"
  },
  {
    "binder": "AS170036 VL1VH1-VLE32W (scFv) scFv: QSALTQPRSVSGSPGQSVTISCAGTSSDVGSWNYVSWYQQHPGKAPKLMIYQVNKRASGVPDRFSGSKSGNTASLTISGLQAEDEADYYCASYRSSDHNIVFGGGTKLTVLGGGGSGGGGSGGGGSEVQLVESGGGLVQPGGSLRLSCAASGFTFSSYAMSWVRQAPGKGLEWVSTINSGTGSPYYADSVKGRFTISRDNSKNTLYLQMNSLRAEDTAVYYCAKNFFDGSWFLGPPAMDYWGQGTLVTVSSHHHHHH",
    "reported_metric": "binding result",
    "result": "no binding"
  }
]
